These data points were gathered from ChEMBL document CHEMBL4138242.

System: Klebsiella pneumoniae
Assay: Antibacterial activity against drug-resistant carbapenemase producing Klebsiella pneumoniae clinical isolate KP-13-54 after 16 to 20 hrs by broth microdilution method
Assay type: functional

{"Smiles notation": "CCCCCCCC[N+](C)(C)CC(=O)Nc1ccc(C(=O)/C=C/c2ccc(F)cc2)cc1.[Cl-]", "MIC, µg/mL": 4}
{"Smiles notation": "CCCCCCCC[N+](C)(C)CC(=O)Nc1ccc(C(=O)/C=C/c2ccccc2F)cc1.[Cl-]", "MIC, µg/mL": 4}
{"Smiles notation": "CCCCCCCC[N+](C)(C)CC(=O)Nc1ccc(C(=O)/C=C/c2ccc(Cl)cc2)cc1.[Cl-]", "MIC, µg/mL": 8}
{"Smiles notation": "CCCCCCCC[N+](C)(C)CC(=O)Nc1ccc(C(=O)/C=C/c2ccco2)cc1.[Cl-]", "MIC, µg/mL": 16}
{"Smiles notation": "CCCCCCCC[N+](C)(C)CC(=O)Nc1ccc(C(=O)/C=C/c2ccccc2C(F)(F)F)cc1.[Cl-]", "MIC, µg/mL": 4}
{"Smiles notation": "CCCCCCCC[N+](C)(C)CC(=O)Nc1ccc(C(=O)/C=C/c2ccc3ccccc3c2)cc1.[Cl-]", "MIC, µg/mL": 16}
{"Smiles notation": "CCCCCCCC[N+](C)(C)CC(=O)Nc1ccc(C(=O)/C=C/c2ccc(F)cc2F)cc1.[Cl-]", "MIC, µg/mL": 4}
{"Smiles notation": "CCCCCCCC[N+](C)(C)CC(=O)Nc1ccc(C(=O)/C=C/c2ccc(OC)cc2)cc1.[Cl-]", "MIC, µg/mL": 8}
{"Smiles notation": "CCCCCCCC[N+](C)(C)CC(=O)Nc1ccc(C(=O)/C=C/c2cccc(Cl)c2)cc1.[Cl-]", "MIC, µg/mL": 4}
{"Smiles notation": "CCCCCCCC[N+](C)(C)CC(=O)Nc1ccc(C(=O)/C=C/c2ccc(C)cc2)cc1.[Cl-]", "MIC, µg/mL": 8}
{"Smiles notation": "CCCCCCCC[N+](C)(C)CC(=O)Nc1ccc(C(=O)/C=C/c2cccs2)cc1.[Cl-]", "MIC, µg/mL": 8}

* * *

System: Escherichia coli
Assay: Antibacterial activity against Escherichia coli ATCC 25922 after 16 to 20 hrs by broth microdilution method
Type: functional
Mark Criterion met only for MIC values smaller than 20 µg/mL; exact matches and larger values are Criterion not met.

{"Compound": "CCCCCCCC[N+](C)(C)CC(=O)Nc1ccc(C(=O)/C=C/c2cccc(Cl)c2)cc1.[Cl-]", "Study target": "Escherichia coli", "Class": "Criterion met"}
{"Compound": "CCCCCCCC[N+](C)(C)CC(=O)Nc1ccc(C(=O)/C=C/c2ccc(F)cc2)cc1.[Cl-]", "Study target": "Escherichia coli", "Class": "Criterion met"}
{"Compound": "CCCCCCCC[N+](C)(C)CC(=O)Nc1ccc(C(=O)/C=C/c2ccc3ccccc3c2)cc1.[Cl-]", "Study target": "Escherichia coli", "Class": "Criterion met"}
{"Compound": "CCCCCCCC[N+](C)(C)CC(=O)Nc1ccc(C(=O)/C=C/c2cc([N+](=O)[O-])ccc2OCC)cc1.[Cl-]", "Study target": "Escherichia coli", "Class": "Criterion not met"}
{"Compound": "C[C@@H](O)[C@H]1C(=O)N2C(C(=O)O)=C(S[C@@H]3CN[C@H](C(=O)N(C)C)C3)[C@H](C)[C@H]12 [MEROPENEM]", "Study target": "Escherichia coli", "Class": "Criterion met"}
{"Compound": "CCCCCCCC[N+](C)(C)CC(=O)Nc1ccc(C(=O)/C=C/c2ccccc2C(F)(F)F)cc1.[Cl-]", "Study target": "Escherichia coli", "Class": "Criterion met"}
{"Compound": "CCCCCCCC[N+](C)(C)CC(=O)Nc1ccc(C(=O)/C=C/c2ccc(C(C)(C)C)cc2)cc1.[Cl-]", "Study target": "Escherichia coli", "Class": "Criterion met"}
{"Compound": "CCCC[N+](C)(C)CC(=O)Nc1ccc(C(=O)/C=C/c2ccccc2F)cc1.[Cl-]", "Study target": "Escherichia coli", "Class": "Criterion not met"}
{"Compound": "CCCCCCCC[N+](C)(C)CC(=O)Nc1ccc(C(=O)/C=C/c2ccccc2F)cc1.[Cl-]", "Study target": "Escherichia coli", "Class": "Criterion met"}
{"Compound": "CCCCCCCC[N+](C)(C)CC(=O)Nc1ccc(C(=O)/C=C/c2cccc(F)c2)cc1.[Cl-]", "Study target": "Escherichia coli", "Class": "Criterion not met"}
{"Compound": "CCCCCCCC[N+](C)(C)CC(=O)Nc1ccc(C(=O)/C=C/c2ccc(F)cc2F)cc1.[Cl-]", "Study target": "Escherichia coli", "Class": "Criterion met"}
{"Compound": "CCCC[N+](C)(C)CC(=O)Nc1ccc(C(=O)/C=C/c2cccs2)cc1.[Cl-]", "Study target": "Escherichia coli", "Class": "Criterion not met"}
{"Compound": "CCCCCCCC[N+](C)(C)CC(=O)Nc1ccc(C(=O)/C=C/c2ccc(OC)cc2)cc1.[Cl-]", "Study target": "Escherichia coli", "Class": "Criterion met"}
{"Compound": "CCCCCCCC[N+](C)(C)CC(=O)Nc1ccc(C(=O)/C=C/c2ccc(Cl)cc2)cc1.[Cl-]", "Study target": "Escherichia coli", "Class": "Criterion met"}
{"Compound": "CCCCCCCC[N+](C)(C)CC(=O)Nc1cccc(C(=O)/C=C/c2cccs2)c1.[Cl-]", "Study target": "Escherichia coli", "Class": "Criterion met"}
{"Compound": "CCCCCCCC[N+](C)(C)CC(=O)Nc1ccc(C(=O)/C=C/c2cccs2)cc1.[Cl-]", "Study target": "Escherichia coli", "Class": "Criterion met"}
{"Compound": "CCCCCCCCCCCCCCCCCC[N+](C)(C)CC(=O)Nc1ccc(C(=O)/C=C/c2ccccc2F)cc1.[Cl-]", "Study target": "Escherichia coli", "Class": "Criterion not met"}
{"Compound": "CCCCCCCC[N+](C)(C)CC(=O)Nc1ccc(C(=O)/C=C/c2ccccc2)cc1.[Cl-]", "Study target": "Escherichia coli", "Class": "Criterion met"}
{"Compound": "CCCCCCCCCCCC[N+](C)(C)CC(=O)Nc1ccc(C(=O)/C=C/c2ccccc2F)cc1.[Cl-]", "Study target": "Escherichia coli", "Class": "Criterion met"}
{"Compound": "CCCCCCCC[N+](C)(C)CC(=O)Nc1ccc(C(=O)/C=C/c2ncccc2F)cc1.[Cl-]", "Study target": "Escherichia coli", "Class": "Criterion met"}
{"Compound": "CCCCCCCC[N+](C)(C)CC(=O)Nc1ccc(C(=O)/C=C/c2cccnc2)cc1.[Cl-]", "Study target": "Escherichia coli", "Class": "Criterion met"}
{"Compound": "CCCCCCCC[N+](C)(C)CC(=O)Nc1ccc(C(=O)/C=C/c2ccccn2)cc1.[Cl-]", "Study target": "Escherichia coli", "Class": "Criterion met"}
{"Compound": "CCCCCCCC[N+](C)(C)CC(=O)Nc1ccc(C(=O)/C=C/c2ccc(C)cc2)cc1.[Cl-]", "Study target": "Escherichia coli", "Class": "Criterion met"}
{"Compound": "CCCCCCCC[N+](C)(C)CC(=O)Nc1ccc(C(=O)/C=C/c2ccco2)cc1.[Cl-]", "Study target": "Escherichia coli", "Class": "Criterion met"}
{"Compound": "CCCCCCCC[N+](C)(C)CC(=O)Nc1ccc(C(=O)/C=C/c2ccncc2)cc1.[Cl-]", "Study target": "Escherichia coli", "Class": "Criterion met"}
{"Compound": "CCCCCCCC[N+](C)(C)CC(=O)Nc1ccc(C(=O)/C=C/c2cccc(Br)n2)cc1.[Cl-]", "Study target": "Escherichia coli", "Class": "Criterion met"}
{"Compound": "CCCC[N+](C)(C)CC(=O)Nc1ccc(C(=O)/C=C/c2ccncc2)cc1.[Cl-]", "Study target": "Escherichia coli", "Class": "Criterion not met"}
{"Compound": "CCCCCCCC[N+](C)(C)CC(=O)Nc1ccc(C(=O)/C=C/c2cccc(F)c2F)cc1.[Cl-]", "Study target": "Escherichia coli", "Class": "Criterion met"}
{"Compound": "CCCCCCCC[N+](C)(C)CC(=O)Nc1ccc(C(=O)/C=C/c2c(F)cccc2F)cc1.[Cl-]", "Study target": "Escherichia coli", "Class": "Criterion not met"}
{"Compound": "CCCCCCCCCCCCCC[N+](C)(C)CC(=O)Nc1ccc(C(=O)/C=C/c2ccccc2F)cc1.[Cl-]", "Study target": "Escherichia coli", "Class": "Criterion not met"}

* * *

Tested on: Escherichia coli
Test: Antibacterial activity against drug-resistant NDM1 producing Escherichia coli clinical isolate Ecl-14-58 after 16 to 20 hrs by broth microdilution method
Assay type: functional
Measurement name: MIC

{"Smiles notation": "CCCCCCCC[N+](C)(C)CC(=O)Nc1ccc(C(=O)/C=C/c2ccc(Cl)cc2)cc1.[Cl-]", "Observed value": "4 µg/mL"}
{"Smiles notation": "CCCCCCCC[N+](C)(C)CC(=O)Nc1ccc(C(=O)/C=C/c2ccc3ccccc3c2)cc1.[Cl-]", "Observed value": "16 µg/mL"}
{"Smiles notation": "CCCCCCCC[N+](C)(C)CC(=O)Nc1ccc(C(=O)/C=C/c2ccc(F)cc2F)cc1.[Cl-]", "Observed value": "4 µg/mL"}
{"Smiles notation": "CCCCCCCC[N+](C)(C)CC(=O)Nc1ccc(C(=O)/C=C/c2ccccc2C(F)(F)F)cc1.[Cl-]", "Observed value": "8 µg/mL"}
{"Smiles notation": "CCCCCCCC[N+](C)(C)CC(=O)Nc1ccc(C(=O)/C=C/c2ccc(C)cc2)cc1.[Cl-]", "Observed value": "4 µg/mL"}
{"Smiles notation": "CCCCCCCC[N+](C)(C)CC(=O)Nc1ccc(C(=O)/C=C/c2ccc(OC)cc2)cc1.[Cl-]", "Observed value": "8 µg/mL"}
{"Smiles notation": "CCCCCCCC[N+](C)(C)CC(=O)Nc1ccc(C(=O)/C=C/c2ccccc2F)cc1.[Cl-]", "Observed value": "4 µg/mL"}
{"Smiles notation": "CCCCCCCC[N+](C)(C)CC(=O)Nc1ccc(C(=O)/C=C/c2ccc(F)cc2)cc1.[Cl-]", "Observed value": "4 µg/mL"}
